target: C-terminal domain (CTD) of human STING (Homo sapiens); assay: STING binding TR-FRET assay; parameters: purchased CisBio 64BDSTGPEG; settings: Human STING WT Binding Kit (CisBio)
Sequence (Q86WV6 135-379 limits assumed): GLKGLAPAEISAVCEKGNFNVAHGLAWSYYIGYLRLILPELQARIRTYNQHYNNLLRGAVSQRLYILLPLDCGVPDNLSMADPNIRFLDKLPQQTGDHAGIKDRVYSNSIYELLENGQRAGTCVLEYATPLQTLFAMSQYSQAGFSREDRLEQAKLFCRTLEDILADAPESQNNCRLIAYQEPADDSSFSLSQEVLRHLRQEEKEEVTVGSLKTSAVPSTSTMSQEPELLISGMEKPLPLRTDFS
QUANTITY: IC50 (nM)
// units = nM; emit number, no label

input: Look up and state reported IC50 for CCOC(=O)COC(CCn1c(=NC(=O)c2cc(C)nn2CC)n(C)c2cc(C(N)=O)ccc21)CCn1c(=NC(=O)c2cc(C)nn2CC)n(C)c2cc(C(N)=O)ccc21 (stereo not shown) [Building Block G-2]
output: 0.452

* * *

I'd be grateful if you could share measured IC50 for these entries.
biological target: C-terminal domain (CTD) of human STING (Homo sapiens, UniProt Q86WV6); assay: STING binding FP assay II; design: recombinant human STING protein (155-379); conditions: 7 nM STING
Sequence (Q86WV6 155-379): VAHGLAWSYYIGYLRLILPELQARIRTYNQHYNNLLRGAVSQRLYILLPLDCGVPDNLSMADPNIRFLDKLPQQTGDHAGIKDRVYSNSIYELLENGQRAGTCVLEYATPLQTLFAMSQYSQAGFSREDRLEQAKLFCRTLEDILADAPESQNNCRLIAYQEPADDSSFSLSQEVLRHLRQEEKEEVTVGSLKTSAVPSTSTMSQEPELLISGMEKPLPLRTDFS
Hi! Could you send only the number? It should be in nM, unit omitted.

input: Determine reported IC50 for CCn1nc(C)cc1C(=O)N=c1n(C)c2cc(C(N)=O)ccc2n1CCC(CCn1c(=NC(=O)c2cc(C)nn2CC)n(C)c2cc(C(N)=O)ccc21)OCC(=O)NCCOCCOCCOCCOCCC(=O)NCCOCCOCCOCCOCCNc1cccc2c1C(=O)N(C1CCC(=O)NC1=O)C2=O (stereo not shown) ; test system: C-terminal domain (CTD) of human STING (Homo sapiens, UniProt Q86WV6).
output: 4.5

input: // output IC50; input CCn1nc(C)cc1C(=O)/N=c1\n(C)c2cc(C(N)=O)ccc2n1CCC(CCn1/c(=N/C(=O)c2cc(C)nn2CC)n(C)c2cc(C(N)=O)ccc21)OCC(=O)NCCOCCOCC(=O)N[C@H](C(=O)N1C[C@H](O)C[C@H]1C(=O)NCc1ccc(-c2scnc2C)cc1)C(C)(C)C (stereo partly shown) ; system C-terminal domain (CTD) of human STING (Homo sapiens, UniProt Q86WV6)
output: 1.7

input: Give IC50 for CCn1nc(C)cc1C(=O)N=c1n(C)c2cc(C(N)=O)ccc2n1CCC(CCn1c(=NC(=O)c2cc(C)nn2CC)n(C)c2cc(C(N)=O)ccc21)OCC(=O)NCCOCCOCCOCCOCCC(=O)NCCOCCOCCOCCOCCOc1cccc(C(=O)c2csc([C@@H]3CCCN3C(=O)[C@@H](NC(=O)[C@H](C)NC)C3CCCCC3)n2)c1 (stereo partly shown) tested on C-terminal domain (CTD) of human STING (Homo sapiens, UniProt Q86WV6).
output: 7.9

input: Provide IC50, recorded with C-terminal domain (CTD) of human STING (Homo sapiens, UniProt Q86WV6), of CCn1nc(C)cc1C(=O)N=c1n(C)c2cc(C(N)=O)ccc2n1CCC(CCn1c(=NC(=O)c2cc(C)nn2CC)n(C)c2cc(C(N)=O)ccc21)OCC(=O)NCCOCCOCCOCCOCCC(=O)NCCOCCOCCOCCOCC(=O)N[C@H](C(=O)N1C[C@H](O)C[C@H]1C(=O)NCc1ccc(-c2scnc2C)cc1)C(C)(C)C (stereo partly shown)
output: 5.7

* * *

target: C-terminal domain (CTD) of human STING (Homo sapiens, UniProt Q86WV6); assay: STING binding FP assay III; design: recombinant human STING protein (155-379); conditions: 10 nM STING (FP assay III according to the text); read-out: STING binding FP assay II, IC50
Record form. Attribute: pIC50. Fill in for each entry.
Note: pIC50 values are expressed as the negative base-10 logarithm of concentration in M.

input: Please give the documented pIC50 of CCn1nc(C)cc1C(=O)N=c1n(C)c2cc(C(N)=O)ccc2n1CCC(CCn1c(=NC(=O)c2cc(C)nn2CC)n(C)c2cc(C(N)=O)ccc21)OCC(=O)NCCOCCOCCOCCOCCC(=O)N1CCN(C(=O)CCOCCC(=O)NCCCCOc2cc(-c3scnc3C)ccc2CNC(=O)[C@@H]2C[C@@H](O)CN2C(=O)[C@@H](NC(=O)C2(F)CC2)C(C)(C)C)CC1 (stereo partly shown)
output: 8.57

input: Dear colleague, please send me the reported pIC50 for CCn1nc(C)cc1C(=O)N=c1n(C)c2cc(C(N)=O)ccc2n1CCC(CCn1c(=NC(=O)c2cc(C)nn2CC)n(C)c2cc(C(N)=O)ccc21)OCC(=O)NCCOCCOCCOCCOCCC(=O)NCCOCCOCCOCCNc1cccc2c1C(=O)N(C1CCC(=O)NC1=O)C2=O (stereo not shown) when you can.
output: 8.28

input: Return pIC50 for the following compound: CCn1nc(C)cc1C(=O)N=c1n(C)c2cc(C(N)=O)ccc2n1CCC(CCn1c(=NC(=O)c2cc(C)nn2CC)n(C)c2cc(C(N)=O)ccc21)OCC(=O)NCCOCCOCCOCCOCCC(=O)NCCOCCNc1cccc2c1C(=O)N(C1CCC(=O)NC1=O)C2=O (stereo not shown)
output: 8.59

input: Fill in reported pIC50 for this entry: CCn1nc(C)cc1C(=O)N=c1n(C)c2cc(C(N)=O)ccc2n1CCC(CCn1c(=NC(=O)c2cc(C)nn2CC)n(C)c2cc(C(N)=O)ccc21)OCC(=O)NCCOCCOCCOCCOCCC(=O)NCCC1CCN(c2ccc(C(=O)NC3CCC(=O)NC3=O)c(OC)c2)CC1 (stereo not shown)
output: 7.99
